Origin of the recorded values: PubChem BioAssay

# TARGET OR SYSTEM: Alpha-bungarotoxin (Bungarus multicinctus) (UniProt P60615)
# Sequence (P60615 whole entry, looked up): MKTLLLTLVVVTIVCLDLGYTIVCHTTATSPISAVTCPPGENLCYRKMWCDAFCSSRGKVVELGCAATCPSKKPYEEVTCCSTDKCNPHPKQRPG
# ASSAY PROCEDURE: compounds binding labelled alpha-BTX control protein – biochemical, small-molecule microarray, Alexa647 label, 635/667 nm fluorescence, artefact control for SMM control protein annotation, profiling panel (AID 1117)
# TEST SETTINGS: alpha-BTX-A647 binding fluorescence, higher = more signal
This section presents molecules with their documented composite z-score values.
# print the numeric value only

MOLECULE | PROPERTY LABEL | NUMBER
CCC[C@@H]1C[C@@]1(CCC)[C@@H](NC(=O)c1cccs1)c1ccc(Cl)cc1 | composite z-score | -0.0153
COc1ccc([Si](C)(C)[C@@H]2[C@@H](CCO)O[C@]3(C(=O)N(Cc4ccccc4)c4ccc(N5C(=O)COc6ccccc65)cc43)[C@H]2C)cc1 | composite z-score | 0.31
CC(C)(C)OC(=O)CC[C@]1(C(=O)O)COC(c2ccc(OCCCO)cc2)=N1 | composite z-score | -0.582
CC(=O)NCCCC[C@@H]1NC(=O)[C@@H]2C[C@H](C(=O)NCCCC[N+](C)(C)C)[C@H](c3cccc(OCCO)c3)N2C1=O | composite z-score | -0.08

Exercise: What does the data say about its composite z-score? Entry: CCCCCCC#C[Si](O[C@H](c1ccccc1)c1cn(Cc2cccc(Cl)c2)nn1)(C(C)C)C(C)C
Solution: -0.0766

Exercise: Look up composite z-score for this molecule: COCCCNC(=O)[C@@]1(Cc2ccccc2I)c2ccccc2C(=O)N(Cc2ccccc2Cl)[C@H]1c1ccc(CO)cc1
Solution: 0.752

Exercise: Quick one: composite z-score of C[C@H]1NC(=O)C([C@@H](C)OCc2ccccc2)NC(=O)[C@@]23C(=O)N[C@@H](Cc4ccccc4)C2[C@H](C)[C@@]2(C)O[C@H]2C3/C=C/CC/C=C/CNC1=O (stereo partly drawn) ?
Solution: 0.421

Exercise: composite z-score lookup needed for C=C[C@@H](O)[C@H]1CC(c2ccccc2)=NO1 , thanks.
Solution: -0.0532

---

# ASSAY PROCEDURE: probe aInhba binding on compound microarray – biochemical, small-molecule microarray, 635/667 nm fluorescence, primary screen (AID 1148);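 also: score merges 667nm spot fluorescence with signal-to-noise for antibody binding to printed compounds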
# TEST SETTINGS: higher = more signal
Quick list: composite z-score per entry.

Recorded composite z-score, per entry:
COMPOUND | composite z-score
O=C1c2ccccc2[C@](Cc2ccccc2I)(C(=O)NCC(F)(F)F)[C@H](c2ccc(CO)cc2)N1Cc1ccccc1 | 0.098
O=C1N(CCS(=O)(=O)c2ccccc2)c2ccccc2[C@H]2OC(c3ccc(OCCCO)cc3)=N[C@@]12CCS(=O)(=O)c1ccccc1 | 1.08
[N-]=[N+]=Nc1ccccc1[C@@H]1OC(c2ccc(OCCCO)cc2)=N[C@]1(CCS(=O)(=O)c1ccccc1)C(=O)NCc1ccccc1 | 0.293
CN(C)C(=O)[C@@]1(CCC(=O)OC(C)(C)C)COC(c2ccc(OCCCO)cc2)=N1 | 0.174
COCCCNC(=O)[C@]1(Cc2ccccc2)N=C(c2ccc(OCCCO)cc2)O[C@@H]1c1ccccc1N=[N+]=[N-] | -0.0136
CC(C)CN1C(=O)[C@@]2(Cc3ccccc31)c1ccccc1C(=O)N(Cc1ccccc1)[C@H]2c1ccc(CO)cc1 | -0.102
CCCC[C@H]1OB(O)C[C@H]2C1=C(COc1ccccc1)Cn1c(=O)n(-c3ccccc3)c(=O)n12 | -0.104
NC(=O)NCC#Cc1ccc2c(c1)[C@]1(C(=O)N2)[C@H](c2ccc(O)cc2)N2[C@H](c3ccccc3)[C@H](c3ccccc3)OC(=O)[C@H]2[C@@H]1C(N)=O | -0.105

Exercise: State the recorded composite z-score for this entry: C=C(C)[C@@H]1CC=C(C(O)C2C=CC3C(=O)N(C4CCCCC4)C(=O)C3N2Nc2ccc(OC)cc2)CC1 (stereo not given in full)
Solution: -0.0521

Exercise: Given the compound Cc1ccc(S[C@]2(C(=O)NCCN3CCOCC3)CC(=O)N(C3Cc4ccccc4C3)[C@@H]2c2ccc(CO)cc2)cc1 , what is its reported composite z-score?
Solution: -0.125

Exercise: Param item = O=C(O)[C@]1(CCS(=O)(=O)c2ccccc2)N=C(c2ccc(OCCCO)cc2)O[C@@H]1c1ccccc1 ; retrieve measured composite z-score.
Solution: 0.297

Exercise: Return reported composite z-score; argument: CN(C)CCCC[C@@H]1NC(=O)[C@H]2C[C@@H](C(=O)NCCCCCCNC(=O)CS)[C@@H](c3ccc(O)cc3)N2C1=O
Solution: -0.224

Exercise: Fill blank: measured composite z-score of the compound O=C(CS)NCCCCCNC(=O)[C@@H]1C[C@@H]2C(=O)N3CCC[C@H]3C(=O)N2[C@@H]1c1ccc(O)cc1 is ____.
Solution: -0.0313

Exercise: Query (compound): CC(C)NC(=O)[C@@H]1c2ccccc2C(=O)N(Cc2cc(C(F)(F)F)cc(C(F)(F)F)c2)[C@H]1c1ccc(CO)cc1 ; field requested: composite z-score
Solution: 0.136

Exercise: Reported composite z-score for O=C1NC(=O)C2C1C=CC(C(O)c1ccc(-c3ccccc3)s1)N2Nc1ccccn1 (stereo not given) : what is it?
Solution: -0.0662

---

# ASSAY PROCEDURE: blood-stage malaria parasite viability loss – strain 3D7, DAPI fluorescence, 100 nL, primary screen (AID 1184);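 also: parasites grown inside human red blood cells in medium with human serum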
# TEST SETTINGS: P. falciparum 3D7 growth, 3 d, higher = more signal
Mark f for z-score values under -1, and t for everything at or above.

MOLECULE | QUALITATIVE LABEL
CO[C@H]1O[C@H](CO)[C@@H](OC(=O)Nc2cccc(F)c2)[C@H](OC(=O)Nc2ccc3c(c2)OCO3)[C@H]1OC(=O)Nc1ccc2c(c1)OCO2 | f
N#Cc1ccc(NN2C(C(O)c3ccccc3)C=CC3C(=O)N(c4ccccc4)C(=O)C32)cc1 (centres undefined) | t
O=C(N1CCOCC1)[C@@]1(CCS(=O)(=O)c2ccccc2)COC(c2ccc(OCCCO)cc2)=N1 | f

Exercise: API: above_or_equal(metric=z-score, cutoff=-1) for item C[C@@H]1ON(c2ccccc2)[C@H](c2ccccc2)[C@H]1C(=O)N1C(=O)OC[C@H]1Cc1ccccc1
Solution: f

Exercise: # bool: z-score of CCCCC(=C=CC[C@H](O)c1ccccc1OCCO)C[C@H](O)c1ccccn1 >= -1
Solution: t

---

# Tested on: XIP peptide (Xip251-270) binding
# ASSAY PROCEDURE: XIP fragment 251-270 binding compounds – biochemical, small-molecule microarray, fluorescence 635/667 nm, 0.1 µg/mL protein, primary screen (AID 1182)
# TEST SETTINGS: fluorescent protein binding, 635 nm, higher = more signal, called active from +8 up or from −8 down
Measured composite z-score, listed per entry.
Reply with just the number.

COMPOUND | TARGET OR SYSTEM | composite z-score
N#Cc1ccc(NN2C(C(O)c3ccco3)C=CC3C(=O)N(c4ccccc4)C(=O)C32)cc1 (stereo unspecified) | XIP peptide (Xip251-270) binding | -0.323
CC[C@@H]1[C@@H]2C3C(=O)N(CC)C(=O)C3CC(=O)[C@@H]2[C@H](c2ccc(C)cc2)N1S(=O)(=O)c1ccc(C)cc1 (stereo partly specified) | XIP peptide (Xip251-270) binding | -0.363
COC(=O)C(CC#Cc1ccc2c(c1)[C@]1(C(=O)N2)[C@H](C(=O)N2CCc3cc(OC)c(OC)cc3C2)[C@H]2C(=O)O[C@H](c3ccccc3)[C@H](c3ccccc3)N2[C@@H]1c1ccc(O)cc1)C(=O)OC | XIP peptide (Xip251-270) binding | 0.534
CO[C@H]1O[C@H](CO)[C@@H](OC(=O)Nc2ccc(C(F)(F)F)cc2)[C@H](OC(=O)Nc2ccccc2)[C@H]1OC(=O)Nc1ccccc1 | XIP peptide (Xip251-270) binding | 1.91
COC(=O)[C@H]1N=C(c2ccc(OCCCO)cc2)O[C@H]1c1ccccc1CN=[N+]=[N-] | XIP peptide (Xip251-270) binding | 0.262

Next, consider the following compound.
Exercise: Dear colleague, I am looking for the recorded composite z-score of the following compound: C=CCOC(=O)[C@@H]1[C@H]2C(=O)O[C@H](c3ccccc3)[C@H](c3ccccc3)N2[C@H](c2ccc(OCCOC(=O)[C@@H]3C[C@@H]4C(=O)N[C@@H](CCCCNC(C)=O)C(=O)N4[C@@H]3c3ccc(O)cc3)cc2)[C@@]12C(=O)Nc1ccc(I)cc12
Solution: 0.0787

---

# TARGET OR SYSTEM: Luciferin 4-monooxygenase (Photinus pyralis)
# ASSAY PROCEDURE: inhibition of purified Photinus pyralis luciferase – biochemical, luminescence, purified enzyme, 2006 set, primary screen (AID 1141);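 also: cell-free assay with purified firefly luciferase at 100 ng per well in PBS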
# TEST SETTINGS: purified firefly luciferase, SteadyGlo luminescence, 30 min; higher = more signal, called active from +8 up or from −8 down
PROPERTY LABEL: z-score
Please state the value as a number alone, without comment.

Exercise: Name the reported z-score value associated with the molecule Cc1ccc(C(C)CC(O)C2C=CC3C(=O)N(Cc4ccccc4)C(=O)C3N2n2cnnc2)o1 (stereo not drawn)
Solution: 0.785

Exercise: Field request: z-score | item: COC(=O)[C@@]1(Cc2ccccc2)[C@H]2c3cc(C(=O)N4CCCC4)n(Cc4ccc(OC(F)(F)F)cc4)c3C[C@H]2CN1C(=O)c1ccccc1
Solution: 1

Exercise: Which z-score is reported for this molecule? CCOC(=O)C1=CCC(c2cccc(Cl)c2)O1 (stereo not drawn)
Solution: 1.7

Exercise: Which z-score is reported for this molecule? CCN(CC)c1ccc(N2CC=CC34O[C@@H]5/C=C\CCCOC(=O)C5[C@H]3C(=O)N(CCCCCO)[C@@H]4C2=O)cc1 (stereo partly drawn)
Solution: -0.918

Exercise: Can you look up the measured z-score of CCOc1cc(C(O)C2C=CC3C(=O)NC(=O)C3N2Nc2ccccn2)ccc1O (stereo not drawn) for me?
Solution: 0.25

Exercise: Query (molecule): C=CCC(OC(C)=O)[C@@H]1[C@@H](N(Cc2cc3ccccc3o2)C(=O)Cc2ccc(OC)cc2)c2cc(OCCCO)ccc2N1C(=O)c1ccc(-c2ccccc2)cc1 (stereo partly drawn) ; field requested: z-score
Solution: -0.52

Exercise: What does the record list as z-score for Cc1ccc(S[C@]2(C(=O)O)CC(=O)N(Cc3ccccc3C(F)(F)F)[C@@H]2c2ccc(CO)cc2)cc1 ?
Solution: 0.989

Exercise: Please give the measured z-score for this molecule: COc1ccc(C#Cc2ccc3c(c2)[C@]2(C(=O)N3)[C@H](C(N)=O)[C@H]3C(=O)O[C@H](c4ccccc4)[C@H](c4ccccc4)N3[C@@H]2c2ccc(O)cc2)cc1
Solution: 0.734
